Source: patent US20030114402A1

Molecular target: DNA cytosine-5 methyltransferase (DCMTase, Dnmt1) (Mus musculus, UniProt P13864 P13864:1-1620)
Sequence (P13864 whole entry, one chain of several): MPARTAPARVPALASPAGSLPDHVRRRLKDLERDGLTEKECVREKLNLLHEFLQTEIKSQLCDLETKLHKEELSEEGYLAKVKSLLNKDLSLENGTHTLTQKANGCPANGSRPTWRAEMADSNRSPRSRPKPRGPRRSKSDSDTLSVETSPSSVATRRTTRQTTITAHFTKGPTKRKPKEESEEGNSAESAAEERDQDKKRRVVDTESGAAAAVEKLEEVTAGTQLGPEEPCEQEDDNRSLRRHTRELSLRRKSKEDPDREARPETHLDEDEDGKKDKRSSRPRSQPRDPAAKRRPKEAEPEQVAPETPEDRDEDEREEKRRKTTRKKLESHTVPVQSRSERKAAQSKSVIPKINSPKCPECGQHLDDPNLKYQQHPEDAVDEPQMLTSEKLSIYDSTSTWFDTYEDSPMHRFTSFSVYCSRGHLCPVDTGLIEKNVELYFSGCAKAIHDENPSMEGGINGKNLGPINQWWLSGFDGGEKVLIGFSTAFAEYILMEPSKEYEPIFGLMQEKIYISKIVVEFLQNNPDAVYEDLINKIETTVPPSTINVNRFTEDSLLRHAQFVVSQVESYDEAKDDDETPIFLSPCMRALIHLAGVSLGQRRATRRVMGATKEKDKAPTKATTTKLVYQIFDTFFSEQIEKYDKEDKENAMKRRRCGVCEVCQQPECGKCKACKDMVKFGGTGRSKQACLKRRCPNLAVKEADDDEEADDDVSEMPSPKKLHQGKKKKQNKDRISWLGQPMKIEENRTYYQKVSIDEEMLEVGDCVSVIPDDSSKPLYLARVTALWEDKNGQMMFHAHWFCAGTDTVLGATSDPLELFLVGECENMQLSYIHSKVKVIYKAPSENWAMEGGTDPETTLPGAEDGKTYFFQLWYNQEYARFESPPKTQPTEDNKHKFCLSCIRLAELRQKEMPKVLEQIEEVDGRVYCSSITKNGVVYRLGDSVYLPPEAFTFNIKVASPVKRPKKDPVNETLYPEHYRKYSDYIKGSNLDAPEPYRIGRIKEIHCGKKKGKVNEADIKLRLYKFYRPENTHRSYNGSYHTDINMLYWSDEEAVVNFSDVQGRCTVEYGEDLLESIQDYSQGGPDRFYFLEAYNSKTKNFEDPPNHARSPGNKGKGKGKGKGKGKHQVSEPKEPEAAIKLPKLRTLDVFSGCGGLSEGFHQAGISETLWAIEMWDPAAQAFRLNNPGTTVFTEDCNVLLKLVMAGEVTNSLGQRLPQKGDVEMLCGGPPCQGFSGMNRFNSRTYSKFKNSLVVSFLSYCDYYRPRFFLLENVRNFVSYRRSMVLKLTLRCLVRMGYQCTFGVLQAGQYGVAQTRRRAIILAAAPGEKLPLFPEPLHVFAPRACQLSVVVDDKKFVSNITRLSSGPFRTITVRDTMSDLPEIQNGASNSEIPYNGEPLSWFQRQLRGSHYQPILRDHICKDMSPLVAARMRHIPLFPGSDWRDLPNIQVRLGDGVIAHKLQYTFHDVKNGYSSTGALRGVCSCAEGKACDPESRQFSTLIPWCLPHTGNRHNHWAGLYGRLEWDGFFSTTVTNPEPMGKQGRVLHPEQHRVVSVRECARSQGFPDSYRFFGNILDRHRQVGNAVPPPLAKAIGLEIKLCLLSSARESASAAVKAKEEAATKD
Experiment: EMSA; unit printed as mM (text indicates micromolar); at limit of resolution
Details: tags: none; purified from mouse erythroleukemia (MEL) cells
Kd reference

binder="CTGGATCCTTTTGACGTCATTTGAATTCCC (ssDNA) [CRE b]" test_value="> 50 µM"

Read the next record carefully.
Prompt: Look up Kd: GGGAATTCAAATGACGTCAAAAGGATCCAG (ssDNA) [CRE a]
Response: > 50 µM
